Reference for the values: PubChem BioAssay AID588334

test: MITF-driven TRPM1 luciferase induction in melanoma cells – cell-based, SK-MEL-5, single point, primary screen (AID 588334); conditions: SK-MEL-5 TRPM1-promoter luciferase, 24 h; at 12.5 µM; active compounds read high; % of positive control, neutral wells = 0;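 also: 0% = neutral control wells and 100% = parthenolide positive control wells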
Among all 300,000 compounds or so, about 2,300 (0.77%) were called active. This excerpt belongs to a sample that is enriched for actives.
property-label: activation (%)

molecule: S=C(NCc1ccc(Cl)cc1)NC1CCCCC1
val: -7.01

molecule: O=C(NC(=S)NC1CCCCC1)c1ccc(Cl)cc1
val: 138

molecule: O=C(Nc1c(Br)cc2c(c1Br)Cc1cc([N+](=O)[O-])ccc1-2)C(Cl)Cl
val: -16.6

molecule: O=S(=O)(Nc1ccc2ccccc2c1)N1CCCCC1
val: 3.28

molecule: COCCCNC(=S)NC(=O)c1ccccc1
val: 17.9

molecule: COc1ccc(C(=O)NC2=NCCS2)c(OC)c1
val: 33.9

molecule: O=C(N[C@H]1C/C=C\C(c2cccc(F)c2)N(Cc2ccccc2)C(=O)C1)OCC1c2ccccc2-c2ccccc21 (stereo not given in full)
val: 20.8

molecule: CCCCNC1(C#N)CCN(Cc2ccccc2)CC1
val: 0.419

molecule: O=C(NC1CCCCC1)c1ccc(-c2ccc(Cl)cc2)o1
val: 111

molecule: O=C(NCc1ccc2c(c1)OCO2)c1ccc(Cl)s1
val: 9.51

molecule: COc1ccc(/C=C2/CCCc3ccccc3C2=O)cc1
val: 39.3

molecule: COc1cccc(/C=N\Nc2nncc(-c3ccccc3)n2)c1
val: 27.3

molecule: Cc1ccc(NC(=O)C2CCC(C(C)(C)C)CC2)cc1S(=O)(=O)N1CCOCC1 (stereo not given)
val: -5.55

molecule: CC1CCc2c(sc3nc4n(c(=O)c23)CCS4)C1 (stereo not given)
val: 73.6

molecule: c1cnc(Nc2nc(-c3ccc4ccccc4c3)cs2)nc1
val: 103

molecule: C=CCn1c(SCc2c(C)noc2C)nc2sc3c(c2c1=O)CCC(C)C3 (stereo not given)
val: -11.8

molecule: Cc1ccc(-c2csc(NC3OC(=O)c4ccccc43)n2)cc1 (stereo not given)
val: -32.1

molecule: CC(=O)N1CCc2ccc(N)cc21
val: -5.2

molecule: O=C(Nc1nc(-c2ccc(-c3ccccc3)cc2)cs1)c1cnccn1
val: 1.68

molecule: COc1ccc(C(=O)NC(=S)NC2CCCCC2)cc1
val: 73.7

molecule: Cc1occc1C(=O)NNC(=S)NCC(C)C
val: -2.13

molecule: CCCn1nnc2sc3c(c2c1=O)CCC(C)C3 (stereo not given)
val: 99.2

molecule: COc1cc(C(=O)OCC(=O)NC23CC4CC(CC(C4)C2)C3)cc(OC)c1OC
val: -3.15

molecule: N#CC(Cc1cc2ccccc2n1S(=O)(=O)c1ccccc1)OCc1ccccc1 (stereo not given)
val: -2.16

molecule: COc1ccc(CCC(=O)Nc2ccc(Cl)c(S(=O)(=O)N3CCOCC3)c2)cc1OC
val: -5.06
